The measurements presented in this section are drawn from the supplement of paper PMC10567573.

B1: MNAT1 (parent)
chain: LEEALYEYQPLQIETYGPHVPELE

Variants of: B1
procedure.summary: protein stability index of a GFP-peptide fusion (GPS, HEK-293T) (PSI 1-6); higher = more stable;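 also: lentivirally expressed fusions sorted by FACS into six bins by GFP to DsRed ratio, PSI derived from sequencing read proportions per bin multiplied by bin number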
experimental.context: c terminus: a fixed tail appended
Entries annotated with measured protein stability index
measured.quantity: protein stability index

>>> assay_value("LEEALYEYQPLQIETYEPHVPELE [G17E]")
3.14
>>> assay_value("LEEALYEYQPLRIETYGPHVPELE [Q12R]")
2.27
>>> assay_value("LQEALYEYQPLQIETYGPHVPELE [E2Q]")
1.71
>>> assay_value("LEEALYEYQPMQIETYGPHVPELE [L11M]")
3.17
>>> assay_value("LEEALYEYQPLQIETYGMHVPELE [P18M]")
2.01
